Each entry below carries its recorded apparent Kd (screen).
MEASURED TARGET: T1, TNFR1 (Homo sapiens, UniProt P19438)
T1 chain: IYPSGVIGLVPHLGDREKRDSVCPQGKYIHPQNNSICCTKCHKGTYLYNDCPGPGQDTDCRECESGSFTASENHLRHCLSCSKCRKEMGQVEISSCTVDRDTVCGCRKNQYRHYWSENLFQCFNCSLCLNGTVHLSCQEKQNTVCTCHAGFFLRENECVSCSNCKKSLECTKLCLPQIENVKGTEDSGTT
EXPERIMENT NOTES: yeast display SC50
ENDPOINT LABEL: apparent Kd (screen) (nM)

1) K69V (designed binder) SMEEEVEKAAKEYEKKKKEAIEKHLEKLKAKDKEAAERFLKELEEAAKEYAKDEAKTMSEEEAKRRAKVYKEKVLLSELSEEEQKEIKEAEEKLVRTILKYVEEAAK : 0.49
2) E12T (designed binder) SMEEEVEKAAKTYEKKKKEAIEKHLEKLKAKDKEAAERFLKELEEAAKEYAKDEAKTMSEEEAKRRAKKYKEKVLLSELSEEEQKEIKEAEEKLVRTILKYVEEAAK : 1.05
3) S80P (designed binder) SMEEEVEKAAKEYEKKKKEAIEKHLEKLKAKDKEAAERFLKELEEAAKEYAKDEAKTMSEEEAKRRAKKYKEKVLLSELPEEEQKEIKEAEEKLVRTILKYVEEAAK : 0.446
4) E62C (designed binder) SMEEEVEKAAKEYEKKKKEAIEKHLEKLKAKDKEAAERFLKELEEAAKEYAKDEAKTMSEECAKRRAKKYKEKVLLSELSEEEQKEIKEAEEKLVRTILKYVEEAAK : 2.73

The reported numbers originate from paper PMC12416549.
